This section presents molecules with their documented pKd values.
TARGET_OF_ASSAY: Quadruplex DNA
EXPERIMENTAL_DETAILS: Binding affinity to 3-terminal mt6363 DNA (unknown origin) assessed as dissociation constant by TAMRA-labeled G4 quenching assay
Type: nucleic-acid assay
Quick note: pKd values are minus log10 of concentrations in mol/L.

# query: pKd | item C[n+]1c(/C=C/c2ccc(N(c3ccccc3)c3ccccc3)cc2)ccc2ccccc21 | system: Quadruplex DNA
5.30

# query: pKd | item C[N+]1=C(/C=C/c2ccc(N(c3ccccc3)c3ccccc3)cc2)C(C)(C)c2ccccc21 | system: Quadruplex DNA
5.20

# query: pKd | item COc1ccc(N(c2ccc(/C=C/C3=[N+](C)c4ccc5ccccc5c4C3(C)C)cc2)c2ccc(OC)cc2)cc1.[I-] | system: Quadruplex DNA
5.72

# query: pKd | item COc1ccc(N(c2ccc(/C=C/C3=[N+](C)c4ccccc4C3(C)C)cc2)c2ccc(OC)cc2)cc1 | system: Quadruplex DNA
5.68

# query: pKd | item C[N+]1=C(/C=C/c2ccc(N(c3ccccc3)c3ccccc3)cc2)C(C)(C)c2c1ccc1ccccc21 | system: Quadruplex DNA
5.96

# query: pKd | item COc1ccc(N(c2ccc(/C=C/c3ccc4ccccc4[n+]3C)cc2)c2ccc(OC)cc2)cc1 | system: Quadruplex DNA
5.49
